Molecular target: HLA-B*44:02
Assay: IEDB peptide-MHC binding, purified MHC/competitive/fluorescence; filed as Kd, often an IC50 or EC50 that approximates it; bounds were set here for any values at or beyond the usual limits of such assays
Details: source organism: Entamoeba histolytica HM-1:IMSS
PARAMETER MEASURED: Kd

Give its Kd value. Item: EVRKAIEFV
≥ 5 µM

----------
Molecular target: HLA-A*02:02
Experiment: IEDB peptide-MHC binding, purified MHC/competitive/radioactivity; filed as Kd, often an IC50 or EC50 that approximates it; bounds were set here for any values at or beyond the usual limits of such assays
Conditions: source organism: Lymphocytic choriomeningitis virus (strain Armstrong)
PARAMETER MEASURED: pKd
Lab note — pKd values are minus log10 of concentrations in M.

[
  {
    "SEQUENCE STRING": "LSYSQTMLL",
    "VALUE MEASURED": 5.68
  }
]

I would be grateful if you could share the reported pKd for KCMSAALKNL .
7.24

Can you look up the measured pKd of LMDCIIFES for me?
7.52

# credit: the Immune Epitope Database (IEDB)
